biological target: transketolase (Homo sapiens); construct: Cells were lysed by vortexing and cell extracts assayed for transketolase activity; endogenous in cells; other cell lines not specified; assay: transketolase activity in cell based assay (lysates of N3PT-treated cells, GAPDH-coupled NADH readout); details: extracts from cells incubated with increasing concentrations of N3PT; read-out: IC50 transketolase (selectivity comparison, FIG. 9)
Sequence (P29401 whole entry): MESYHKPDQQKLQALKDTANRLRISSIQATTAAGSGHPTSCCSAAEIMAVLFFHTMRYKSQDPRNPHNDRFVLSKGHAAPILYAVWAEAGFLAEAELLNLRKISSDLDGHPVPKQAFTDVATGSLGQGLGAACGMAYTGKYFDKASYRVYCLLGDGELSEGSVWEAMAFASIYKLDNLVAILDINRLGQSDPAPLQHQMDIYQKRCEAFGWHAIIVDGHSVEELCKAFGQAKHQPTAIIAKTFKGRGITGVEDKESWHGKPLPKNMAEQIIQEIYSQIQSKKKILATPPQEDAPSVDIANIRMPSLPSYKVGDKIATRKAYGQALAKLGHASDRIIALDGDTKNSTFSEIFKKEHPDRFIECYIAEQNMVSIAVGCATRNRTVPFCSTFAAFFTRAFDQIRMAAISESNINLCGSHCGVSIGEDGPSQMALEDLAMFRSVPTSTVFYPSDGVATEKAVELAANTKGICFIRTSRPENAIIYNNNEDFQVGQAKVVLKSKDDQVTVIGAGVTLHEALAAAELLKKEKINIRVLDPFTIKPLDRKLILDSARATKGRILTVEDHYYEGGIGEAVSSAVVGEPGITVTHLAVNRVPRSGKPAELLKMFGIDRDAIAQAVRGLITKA
pIC50: −log10 of the molar value.
MEASURED PROPERTY: pIC50

SMILES DATA | ASSAY TARGET | OBSERVED VALUE
Cc1ccc(C[n+]2csc(CCO)c2C)c(N)n1 | transketolase (Homo sapiens) | 8.15

* * *

Molecular target: alpha-ketoglutarate dehydrogenase (kGDH) (Homo sapiens, UniProt Q02218)
Construct: endogenous in cells
Sequence (Q02218 41-1023): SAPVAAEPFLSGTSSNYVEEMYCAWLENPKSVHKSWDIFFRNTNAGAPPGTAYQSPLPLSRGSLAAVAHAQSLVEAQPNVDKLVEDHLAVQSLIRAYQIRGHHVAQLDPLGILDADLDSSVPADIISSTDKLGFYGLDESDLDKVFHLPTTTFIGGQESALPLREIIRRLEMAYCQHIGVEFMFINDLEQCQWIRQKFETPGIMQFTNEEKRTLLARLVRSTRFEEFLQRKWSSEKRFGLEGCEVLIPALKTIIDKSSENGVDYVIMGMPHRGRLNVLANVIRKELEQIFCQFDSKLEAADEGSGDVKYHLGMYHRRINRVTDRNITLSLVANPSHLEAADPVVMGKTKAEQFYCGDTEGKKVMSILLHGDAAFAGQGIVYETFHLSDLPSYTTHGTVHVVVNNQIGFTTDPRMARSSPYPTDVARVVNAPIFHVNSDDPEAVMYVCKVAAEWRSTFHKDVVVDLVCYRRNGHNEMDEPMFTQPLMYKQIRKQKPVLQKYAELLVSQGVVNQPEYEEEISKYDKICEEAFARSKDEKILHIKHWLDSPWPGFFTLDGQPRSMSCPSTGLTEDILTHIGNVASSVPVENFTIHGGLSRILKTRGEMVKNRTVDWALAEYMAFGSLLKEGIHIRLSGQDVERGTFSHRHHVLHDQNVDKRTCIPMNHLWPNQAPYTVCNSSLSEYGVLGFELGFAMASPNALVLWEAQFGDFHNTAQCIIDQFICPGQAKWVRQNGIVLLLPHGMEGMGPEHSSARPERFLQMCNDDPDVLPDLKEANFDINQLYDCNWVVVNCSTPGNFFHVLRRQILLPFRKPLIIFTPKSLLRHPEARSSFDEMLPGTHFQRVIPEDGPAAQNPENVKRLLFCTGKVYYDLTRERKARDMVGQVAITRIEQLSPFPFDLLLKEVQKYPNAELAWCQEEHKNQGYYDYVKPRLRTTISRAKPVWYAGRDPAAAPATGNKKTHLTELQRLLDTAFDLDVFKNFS
Sequence (P36957 68-453 partner): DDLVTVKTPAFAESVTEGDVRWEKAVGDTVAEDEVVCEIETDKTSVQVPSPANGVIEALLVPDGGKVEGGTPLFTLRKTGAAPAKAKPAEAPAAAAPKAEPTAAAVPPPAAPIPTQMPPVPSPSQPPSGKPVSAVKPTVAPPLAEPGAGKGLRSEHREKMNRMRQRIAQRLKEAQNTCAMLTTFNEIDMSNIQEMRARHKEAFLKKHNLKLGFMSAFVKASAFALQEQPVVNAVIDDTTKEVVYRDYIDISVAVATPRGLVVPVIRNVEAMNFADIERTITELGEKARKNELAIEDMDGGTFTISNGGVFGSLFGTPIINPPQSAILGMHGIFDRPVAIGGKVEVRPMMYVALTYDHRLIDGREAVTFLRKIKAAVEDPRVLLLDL
Sequence (P09622 36-509 partner): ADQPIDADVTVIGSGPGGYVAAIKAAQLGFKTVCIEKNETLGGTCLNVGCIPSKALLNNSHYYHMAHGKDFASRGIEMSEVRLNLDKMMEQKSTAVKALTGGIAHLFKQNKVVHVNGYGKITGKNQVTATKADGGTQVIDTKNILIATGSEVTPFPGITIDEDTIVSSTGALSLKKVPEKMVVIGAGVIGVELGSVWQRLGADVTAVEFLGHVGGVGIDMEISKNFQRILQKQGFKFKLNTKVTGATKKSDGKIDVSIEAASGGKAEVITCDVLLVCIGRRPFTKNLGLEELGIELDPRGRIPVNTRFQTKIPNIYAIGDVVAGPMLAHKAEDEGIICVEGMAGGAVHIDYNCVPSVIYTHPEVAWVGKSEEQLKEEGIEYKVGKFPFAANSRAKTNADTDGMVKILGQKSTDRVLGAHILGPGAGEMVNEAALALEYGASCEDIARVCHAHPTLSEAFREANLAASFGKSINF
Assay: kGDH activity in extracts from cells incubated with N3PT
Conditions: extracts from cells incubated with increasing concentrations of N3PT; read-out: IC50 kGDH (selectivity comparison, FIG. 9)
pIC50: −log10 of the molar value.

COMPOUND | pIC50
Cc1ccc(C[n+]2csc(CCO)c2C)c(N)n1 [N3PT] | 7.07
